- Assay Overview: qHTS Assay for Lipid Storage Modulators: S3 Assay against Probe and Analogs
- Experimental Parameters: Drosophila S3 cells, BODIPY lipid droplet fluorescence, 18-24 h, oleic acid added to induce droplets; series mostly up to 46.1 µM
Inconclusive results are not listed. Active and inactive are the calls of the source. Calls come from the whole dose curve; as a rule, active = well fitted inhibition curve with a large enough effect; inconclusive = small, poorly fitted or top-dose-only effect; inactive = no such curve, though single readings can be large or run the other way.
Write down the outcome that applies. Available outcomes: yes (1) (active), no (0) (inactive)

Below are worked cases with known answers.
Compound	Answer Label
CCOc1ccc(CCNC(=O)C2=C(C)OCCO2)cc1OCC	no (0)
CC1(C)CCC(c2ccc(Cl)cc2)=C(CN2CCN(c3ccc(C(=O)NS(=O)(=O)c4ccc(N[C@H](CCN5CCOCC5)CSc5ccccc5)c(S(=O)(=O)C(F)(F)F)c4)cc3)CC2)C1	yes (1)
CC(C)(NC(=O)Nc1ccccc1Cl)C(=O)N1CCC(C(=O)O)CC1	no (0)
COc1ccc(-n2ncc3c2CCCC3NC(=O)c2ccccn2)cc1 (stereo not given)	yes (1)

What call does the record list for CCOc1ccc(CCNC(C)=O)cc1OCC ? no (0)

Could you do the same for CCOc1ccc(CCNC(=O)CN(C)C)cc1OCC , please? no (0)

Can you check COc1nc(-c2ccc3c(c2)OCO3)n(-c2ccc(NC(=O)CSc3ccccc3)cc2)n1 next? no (0)
